Task for the reader: assign each of the following compounds its reported CC50.
assay: Cytotoxicity of compound was tested as concentration required for 50% reduction in cellular viability in CEM-SS cells; assay type: cell-based; conditions: human

Looking up CC(C)CCCC(C)[C@H]1CC[C@H]2[C@@H]3CCC4C[C@@H](CCC=C(c5cc(Cl)c(O)c(C(=O)N[C@@H](Cc6ccccc6)C(=O)O)c5)c5cc(Cl)c(O)c(C(=O)N[C@@H](Cc6ccccc6)C(=O)O)c5)CC[C@]4(C)[C@H]3CC[C@]12C (stereo partly drawn) , I see its CC50 listed as > 200 µM

Looking up CC(C)CCCC(C)[C@H]1CC[C@H]2[C@@H]3CCC4C[C@@H](CCC=C(c5cc(Cl)c(O)c(C(=O)O)c5)c5cc(Cl)c(O)c(C(=O)O)c5)CC[C@]4(C)[C@H]3CC[C@]12C (stereo partly drawn) , I see its CC50 listed as > 200 µM

Looking up CC(C)CCCC(C)[C@H]1CC[C@H]2[C@@H]3CCC4C[C@@H](CCCC(c5cc(Cl)c(O)c(C(=O)NCC(=O)O)c5)c5cc(Cl)c(O)c(C(=O)NCC(=O)O)c5)CC[C@]4(C)[C@H]3CC[C@]12C (stereo partly drawn) , I see its CC50 listed as > 200 µM

====

assay: Cytotoxicity of compound was tested as concentration required for 50% reduction in cellular viability in MT-4 cells; assay type: cell-based, MT4; details: human
Task for the reader: assign each of the following molecules its reported CC50.

Looking up CC(C)CCCC(C)[C@H]1CC[C@H]2[C@@H]3CCC4C[C@@H](CCC=C(c5cc(Cl)c(O)c(C(=O)N[C@@H](Cc6ccccc6)C(=O)O)c5)c5cc(Cl)c(O)c(C(=O)N[C@@H](Cc6ccccc6)C(=O)O)c5)CC[C@]4(C)[C@H]3CC[C@]12C (some centres not stated) , I see its CC50 listed as 62 µM

Looking up CC(C)CCCC(C)[C@H]1CC[C@H]2[C@@H]3CCC4C[C@@H](CCC=C(c5cc(Cl)c(O)c(C(=O)O)c5)c5cc(Cl)c(O)c(C(=O)O)c5)CC[C@]4(C)[C@H]3CC[C@]12C (some centres not stated) , I see its CC50 listed as > 200 µM

====

assay: Cytotoxicity of compound was tested as concentration required for 50% reduction in cellular viability in CEM-SS cells; assay type: cell-based; details: human
Task for the reader: assign each of the following compounds its reported CC50.

Looking up CC(C)CCCC(C)[C@H]1CC[C@H]2[C@@H]3CCC4C[C@@H](CCC=C(c5cc(Cl)c(O)c(C(=O)N[C@@H](CCC(=O)O)C(=O)O)c5)c5cc(Cl)c(O)c(C(=O)N[C@@H](CCC(=O)O)C(=O)O)c5)CC[C@]4(C)[C@H]3CC[C@]12C (stereo partly drawn) , I see its CC50 listed as 82 µM

Looking up CC(C)CCCC(C)[C@H]1CC[C@H]2[C@@H]3CCC4C[C@@H](CCC=C(c5cc(Cl)c(O)c(C(=O)N[C@@H](CC(C)C)C(=O)O)c5)c5cc(Cl)c(O)c(C(=O)N[C@@H](CC(C)C)C(=O)O)c5)CC[C@]4(C)[C@H]3CC[C@]12C (stereo partly drawn) , I see its CC50 listed as > 200 µM

Looking up CC(C)CCCC(C)[C@H]1CC[C@H]2[C@@H]3CCC4C[C@@H](CCC=C(c5cc(Cl)c(O)c(C(=O)NCC(=O)O)c5)c5cc(Cl)c(O)c(C(=O)NCC(=O)O)c5)CC[C@]4(C)[C@H]3CC[C@]12C (stereo partly drawn) , I see its CC50 listed as > 200 µM

====

Task for the reader: assign each of the following compounds its reported CC50.
assay: Cytotoxicity of compound was tested as concentration required for 50% reduction in cellular viability in CEM-SS cells; format: cell-based; settings: human
Lab book: enter the figure in µM, no units written.

Looking up CC(C)CCCC(C)[C@H]1CC[C@H]2[C@@H]3CCC4C[C@@H](CCCC(c5cc(Cl)c(O)c(C(=O)N[C@@H](CCC(=O)O)C(=O)O)c5)c5cc(Cl)c(O)c(C(=O)N[C@@H](CCC(=O)O)C(=O)O)c5)CC[C@]4(C)[C@H]3CC[C@]12C (some centres undefined) , I see its CC50 listed as 34

Looking up CC(C)CCCC(C)[C@H]1CC[C@H]2[C@@H]3CCC4C[C@@H](CCC=C(c5cc(Cl)c(O)c(C(=O)N[C@@H](CC(=O)O)C(=O)O)c5)c5cc(Cl)c(O)c(C(=O)N[C@@H](CC(=O)O)C(=O)O)c5)CC[C@]4(C)[C@H]3CC[C@]12C (some centres undefined) , I see its CC50 listed as 90
